Attribute: koff
target: T1, A beta oligomer (synthetic A beta1-40, HCl form, 0.1 mg/ml in PBS, incubated at 37 degrees C for one hour) (UniProt P05067 672-711); assay: SPR (Biacore 3000)
T1 construct: domain: A beta1-40; non-fibrous multimer of the peptide; also called A beta 1-40 oligomer
MEASUREMENT TYPE: koff

[[record]]
binder = "IR-077 antibody (antibody, mouse IgG2a, V domains shown, mouse IgG2a) VH: DVQLVESGGGLVQPGGSRKLSCAASGFTFSSFGMHWVRQAPEKGLEWVAYISSGSSTIYYADTVKGRFTISRDNPKNTLFLQMTSLRSEDTAMYYCARSGYRYSYYAMDYWGQGTSVTVSS VL: DVLMTQTPLSLPVSLGDQASISCRSSQSIVHSNGNTYLEWYLQKPGQSPKLLIYKVSNRFSGVPDRFSGSGSGTDFTLKISRVEAEDLGVYYCFQGSHVPLTFGAGTKLELK"
measured_result = "0.153 s⁻¹"

[[record]]
binder = "IR-095 antibody (antibody, mouse IgG2b, V domains shown, mouse IgG2b) VH: QVTLKESGPGILQPSQTLSLTCSFSGFSLSTSGMGVSWIRQPSGKGLEWLAHIYWDDDKRYNPSLKSRLTISKDTSRNQVFLKITSVDTADTATYYCARRAPRLYYGYDAMDYWGQGTSVTVSS VL: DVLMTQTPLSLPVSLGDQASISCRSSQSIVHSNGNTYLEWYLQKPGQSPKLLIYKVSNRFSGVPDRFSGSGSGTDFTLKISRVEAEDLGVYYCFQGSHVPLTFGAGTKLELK"
measured_result = "0.00331 s⁻¹"

[[record]]
binder = "IR-107 antibody (antibody, mouse IgG2b, V domains shown, mouse IgG2b) VH: DVQLVESGGGLVQPGGSRKLSCAASGFTFSSFGMHWVRQAPEKGLEWVAYISSGSSTIYYADTVKGRFTISRDNPKNTLFLQMTSLRSEDTAMYYCARYGYAMDYWGQGTSVTVSS VL: DVLMTQTPLSLPVSLGDQASISCRSSQSIVHSNGNTYLEWYLQKPGQSPKLLIYKVSNRFSGVPDRFSGSGSGTDFTLKISRVEAEDLGVYYCFQGSHVPPTFGGGTKLEIK"
measured_result = "0.1 s⁻¹"

